Test system: Escherichia coli TOP10
Experiment Notes: shrunken log2 fold change of peptide-encoding DNA abundance (4.5 h post-induction vs induction); higher = less antimicrobial activity (less host growth inhibition)
Experimental Conditions: time post-induction: 4.5 h; library: site-saturation at positions 5, 18, 19, 20
Kindly state shrunken log2 fold change for each of the entries shown.
Give bare numbers.

Worked examples, 3 sequences total:
RRIRPRPPRLPRPRPRPYGSPRP ... -0.0157
RRIRYRPPRLPRPRPRPIDWPRP ... 0.0205
RRIRKRPPRLPRPRPRPVSVPRP ... -0.0496

Look at each sequence and report its shrunken log2 fold change.
1. RRIRGRPPRLPRPRPRPDVNPRP
2. RRIRTRPPRLPRPRPRPWCQPRP
3. RRIRIRPPRLPRPRPRPRHEPRP

A:
[0.245, -0.134, 0.0234]

Look at each sequence and report its shrunken log2 fold change.
1. RRIRQRPPRLPRPRPRPAQNPRP
2. RRIRERPPRLPRPRPRPCTTPRP
3. RRIRQRPPRLPRPRPRPPECPRP
4. RRIRKRPPRLPRPRPRPGVVPRP
5. RRIRTRPPRLPRPRPRPEVRPRP

A:
1. 0.231
2. -0.172
3. -0.0742
4. 0.755
5. 0.0828

Look at each sequence and report its shrunken log2 fold change.
1. RRIRYRPPRLPRPRPRPWHFPRP
2. RRIRKRPPRLPRPRPRPYHCPRP
3. RRIRERPPRLPRPRPRPYFTPRP

A:
1: -1.15; 2: -0.0129; 3: -0.971

---

System: Escherichia coli TOP10
Experiment Notes: shrunken log2 fold change of peptide-encoding DNA abundance (4.5 h post-induction vs induction); higher = less antimicrobial activity (less host growth inhibition)
Experimental Conditions: time post-induction: 4.5 h; library: site-saturation at positions 5, 18, 19, 20
Readout Type: shrunken log2 fold change
Give bare numbers.

RRIRHRPPRLPRPRPRPEKDPRP ... -0.0422

Look at each sequence and report its shrunken log2 fold change.
1. RRIRARPPRLPRPRPRPTWNPRP
2. RRIRLRPPRLPRPRPRPMFAPRP
3. RRIRVRPPRLPRPRPRPSWNPRP
4. RRIRPRPPRLPRPRPRPNVTPRP
5. RRIRVRPPRLPRPRPRPNMSPRP

A:
[0.279, 0.082, -0.371, 0.209, -0.537]

Look at each sequence and report its shrunken log2 fold change.
1. RRIRIRPPRLPRPRPRPKYIPRP
2. RRIRRRPPRLPRPRPRPSGSPRP

A:
[-0.992, -0.0977]

---

Test system: Escherichia coli TOP10;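 further: peptides expressed intracellularly from a pBAD plasmid library in pooled LB shake-flask culture, induced with 0.3% L-arabinose, DNA abundance read by NGS, three biological replicates, DESeq2 with apeglm shrinkage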
Experiment Notes: shrunken log2 fold change of peptide-encoding DNA abundance (4.5 h post-induction vs induction); higher = less antimicrobial activity (less host growth inhibition)
Experimental Conditions: time post-induction: 4.5 h; library: site-saturation at positions 5, 18, 19, 20
Kindly state shrunken log2 fold change for each of the entries shown.
Numbers only.

Worked examples, 3 sequences total:
RRIRQRPPRLPRPRPRPLWPPRP ... 0.227
RRIRVRPPRLPRPRPRPAESPRP ... 0.0613
RRIRIRPPRLPRPRPRPPPQPRP ... 0.52

Look at each sequence and report its shrunken log2 fold change.
1. RRIRFRPPRLPRPRPRPNLQPRP
2. RRIRIRPPRLPRPRPRPHKEPRP
3. RRIRKRPPRLPRPRPRPANTPRP
4. RRIRDRPPRLPRPRPRPCYSPRP

A:
-0.264
0.0692
-0.0533
-0.0729
